All values here come from PubChem BioAssay AID1963964.

# System: 997726-040-R-J2-PDC tumor spheroids, viability
# test.protocol: Anticancer human tumor 997726-040-R-J2-PDC patient-derived squamous cell lung carcinoma cell line growth inhibition [PI3K]
# test.context: second compound 0.00316 µM; first compound 1 µM; active compounds read low; spheroids with HUVEC and MSC
So I've got a bunch of compounds here, and I need their viability, T/C values.
One number for each entry, in %.

Observe how each entry below is paired with its result.
CC(Cn1ccc(-c2ccc(C#N)c(Cl)c2)n1)NC(=O)c1cc(C(C)O)[nH]n1 (centres undefined) + CC(Nc1ccc2c(c1)OCCn1cc(N3C(=O)OCC3C(F)F)nc1-2)C(N)=O	91.4
CNC(=O)c1ccc(N2C(=S)N(c3ccc(C#N)c(C(F)(F)F)c3)C(=O)C2(C)C)cc1F + CC(Nc1ccc2c(c1)OCCn1cc(N3C(=O)OCC3C(F)F)nc1-2)C(N)=O	88.2
CCCS(=O)(=O)Nc1ccc(F)c(C(=O)c2c[nH]c3ncc(-c4ccc(Cl)cc4)cc23)c1F + COc1c(OCCCN2CCOCC2)ccc2c3n(c(=NC(=O)c4cnc(N)nc4)nc12)CCN3	114
Cn1nccc1Nc1nccc(-c2ccn(C(CO)c3ccc(Cl)c(F)c3)c(=O)c2)n1 (centres undefined) + CC(Nc1ccc2c(c1)OCCn1cc(N3C(=O)OCC3C(F)F)nc1-2)C(N)=O	64.3
CNC(=O)c1ccc(N2C(=S)N(c3ccc(C#N)c(C(F)(F)F)c3)C(=O)C2(C)C)cc1F + COc1c(OCCCN2CCOCC2)ccc2c3n(c(=NC(=O)c4cnc(N)nc4)nc12)CCN3	76.1
CC1(C)CCC(CN2CCN(c3ccc(C(=O)NS(=O)(=O)c4ccc(NCC5CCOCC5)c([N+](=O)[O-])c4)c(Oc4cnc5[nH]ccc5c4)c3)CC2)=C(c2ccc(Cl)cc2)C1 + COc1c(OCCCN2CCOCC2)ccc2c3n(c(=NC(=O)c4cnc(N)nc4)nc12)CCN3	81.1
C[C@@H](NC(=O)c1ncnc(N)c1Cl)c1ncc(C(=O)Nc2cc(C(F)(F)F)c(Cl)cn2)s1 + COc1c(OCCCN2CCOCC2)ccc2c3n(c(=NC(=O)c4cnc(N)nc4)nc12)CCN3	96.8
C[C@@H](NC(=O)c1ncnc(N)c1Cl)c1ncc(C(=O)Nc2cc(C(F)(F)F)c(Cl)cn2)s1 + CC(Nc1ccc2c(c1)OCCn1cc(N3C(=O)OCC3C(F)F)nc1-2)C(N)=O	100

Consider the compound shown here: Cn1ncc(Cl)c1-c1cc(C(=O)NC(CN)Cc2cccc(F)c2)sc1Cl (centres undefined) + COc1c(OCCCN2CCOCC2)ccc2c3n(c(=NC(=O)c4cnc(N)nc4)nc12)CCN3 What is its recorded viability, T/C?
15.7

----------
# System: 997726-040-R-J2-PDC tumor spheroids, viability
# test.protocol: Anticancer human tumor 997726-040-R-J2-PDC cell line growth inhibition [PI3K];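 further: spheroids exposed to compounds for seven days before readout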
# test.context: second compound 10 µM; first compound 3.16 µM; active compounds read low; spheroids with HUVEC and MSC
value.type: viability, T/C (%)
Answers are plain numbers, in %.

Previously resolved entries follow.
Cn1ncc(Cl)c1-c1cc(C(=O)NC(CN)Cc2cccc(F)c2)sc1Cl (stereo not drawn) + Cc1nc(NC(=O)N2CCCC2C(N)=O)sc1-c1ccnc(C(C)(C)C(F)(F)F)c1	3.71
CNC(=O)c1ccc(N2C(=S)N(c3ccc(C#N)c(C(F)(F)F)c3)C(=O)C2(C)C)cc1F + CC(Nc1ncnc2nc[nH]c12)c1cc2cccc(Cl)c2c(=O)n1-c1ccccc1	54.4

Field: next compound
Which viability, T/C reading was recorded for the compound CCCS(=O)(=O)Nc1ccc(F)c(C(=O)c2c[nH]c3ncc(-c4ccc(Cl)cc4)cc23)c1F + CC(Nc1ncnc2nc[nH]c12)c1cc2cccc(Cl)c2c(=O)n1-c1ccccc1 ?
82.6
